All values here come from patent US20080311047A1.

Target: FLIPpur (His6-eCFP-PurR-eYFP fusion of E. coli purine repressor PurR, residues 56 to 341, Arg190Gln, Leu263Pro) (Escherichia coli, UniProt P0ACP7, L263P/R190Q)
Sequence (P0ACP7 56-341 R190Q/L263P): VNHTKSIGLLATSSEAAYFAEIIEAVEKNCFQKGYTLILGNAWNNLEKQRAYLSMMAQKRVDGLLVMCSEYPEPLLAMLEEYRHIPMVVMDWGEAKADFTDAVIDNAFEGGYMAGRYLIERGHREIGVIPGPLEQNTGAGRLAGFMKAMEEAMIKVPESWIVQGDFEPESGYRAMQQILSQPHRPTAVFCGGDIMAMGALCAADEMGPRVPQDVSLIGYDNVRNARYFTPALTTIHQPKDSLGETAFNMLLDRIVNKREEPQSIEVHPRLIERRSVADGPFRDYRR
Test: hypoxanthine titration of FLIPpur by FRET ratio change
quantity measured: Kd (µM)
Reply numerically in µM, unit not repeated.

# Kd lookup, item O=c1[nH]cnc2nc[nH]c12 [hypoxanthine]
5.6

---

Form: system (FLIPW-CTY (eCFP-TrpR-Venus) (Escherichia coli, UniProt P0A881)), quantity (Kd), values below.
Reply numerically in µM, unit not repeated.

N[C@H](Cc1c[nH]c2ccccc12)C(=O)O [D-tryptophan] | 3100
Cc1ccc2[nH]cc(C[C@H](N)C(=O)O)c2c1 [L-5-methyl-tryptophan] | 60
N[C@@H](Cc1c[nH]c2ccccc12)C(=O)O [L-tryptophan] | 220

// switching to the query compound
# Kd lookup, item N[C@@H](Cc1c[nH]c2ccc(O)cc12)C(=O)O [L-5-hydroxy-tryptophan]
6000

---

Target: FLIPW-TCTY (TrpR-eCFP-TrpR-Venus fusion of E. coli tryptophan repressor TrpR, SEQ ID NO: 5) (Escherichia coli, UniProt P0A881)
Assay: L-tryptophan titration of FLIPW-TCTY by FRET ratio change
Conditions: 20 mM MOPS pH 7.0, apparent binding constant
quantity measured: Kd (µM)
Reply numerically in µM, unit not repeated.

# Kd lookup, item "N[C@@H](Cc1c[nH]c2ccccc12)C(=O)O"
20
